The following molecules are listed with their measured zone of inhibition at 1000 µg/mL values.
- System: Staphylococcus
- testDescription: Antimicrobial activity against Staphylococcus citreus at 20 uL of 1 mg/ml by disc diffusion assay
- Format: functional
- measurementSetup: read-out: IZ
Express your answer in mm, writing the number without its unit.

Completed entries (count: 3):
O=CN1N=C(c2ccc(F)cc2)CC1c1cn(-c2ccccc2)nc1-c1ccc(Cl)c(Cl)c1 (stereo not given) | 18
CCC(=O)N1N=C(c2ccc(Cl)cc2)CC1c1cn(-c2ccccc2)nc1-c1ccc(Cl)c(Cl)c1 (stereo not given) | 18
Fc1ccc(C2=NNC(c3cn(-c4ccccc4)nc3-c3ccc(Cl)c(Cl)c3)C2)cc1 (stereo not given) | 23

State, in one line, measured zone of inhibition at 1000 µg/mL of CCC(=O)N1N=C(c2ccc(F)cc2)CC1c1cn(-c2ccccc2)nc1-c1ccc(Cl)c(Cl)c1 (stereo not given)
15

State, in one line, measured zone of inhibition at 1000 µg/mL of O=CN1N=C(c2ccc(Cl)cc2)CC1c1cn(-c2ccccc2)nc1-c1ccc(Cl)c(Cl)c1 (stereo not given)
21
